Reported IC50 is given for each of the following molecules.
# Experimental System: human recombinant kinase full-length wildtype AKT1 (Homo sapiens)
# Construct: Purified human recombinant kinase full-length wildtype AKT1 was expressed in insect cells; made in house; host or cells: insect cells
# Sequence (P31749 whole entry): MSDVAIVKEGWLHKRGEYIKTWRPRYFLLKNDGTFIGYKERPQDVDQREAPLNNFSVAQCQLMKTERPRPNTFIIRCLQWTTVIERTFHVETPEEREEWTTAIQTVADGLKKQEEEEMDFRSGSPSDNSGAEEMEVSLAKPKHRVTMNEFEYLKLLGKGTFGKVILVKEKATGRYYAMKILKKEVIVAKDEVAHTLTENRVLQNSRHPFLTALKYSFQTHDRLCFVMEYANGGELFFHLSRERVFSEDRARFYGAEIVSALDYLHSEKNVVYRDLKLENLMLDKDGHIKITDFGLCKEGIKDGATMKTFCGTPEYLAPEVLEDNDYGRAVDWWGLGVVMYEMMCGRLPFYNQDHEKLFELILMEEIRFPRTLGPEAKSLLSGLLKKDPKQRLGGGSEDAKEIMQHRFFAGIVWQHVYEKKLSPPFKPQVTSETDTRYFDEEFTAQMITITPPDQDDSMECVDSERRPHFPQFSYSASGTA
# Method Notes: AKT1 kinase assay (wildtype, TR-FRET, Lance)
# Format: biochemical
# Measurement Setup: 0.6 nM wildtype AKT1, 50 nM Ulight-CREBtide, either 50 μM ATP or 2 mM ATP, 60 min at RT

Recorded results for 4 molecules are shown here.
Nc1ncccc1-c1nc2ccc(-c3ccc(F)cc3)nc2n1-c1ccc(NC(=O)[C@H]2CC[C@H](C(=O)O)CC2)nc1    < 20 µM
Nc1ncccc1-c1nc2ccc(-c3ccccc3)nc2n1-c1ccc(NC(=O)C2CCC(C(=O)O)C2)nc1 (stereo not drawn)    < 20 µM
CNC(=O)[C@H]1CC[C@H](N(C)Cc2ccc(-n3c(-c4cccnc4N)nc4ccc(-c5ccccc5)nc43)cc2)CC1    < 20 µM
C[C@@H]1C[C@H](N(C)Cc2ccc(-n3c(-c4cccnc4N)nc4ccc(-c5ccccc5)nc43)c(F)c2)C[C@H](C)[C@H]1C(=O)O    < 20 µM

Dear colleague, I am looking for the recorded IC50 of the following molecule: Nc1ncccc1-c1nc2ccc(-c3ccccc3)nc2n1-c1ccc(C(=O)N2CCC(C(=O)O)CC2)nc1
20 to 80 µM

Dear colleague, I am looking for the recorded IC50 of the following molecule: Nc1ncccc1-c1nc2ccc(-c3ccccc3F)nc2n1-c1ccc([C@@H]2CCN(C[C@H]3CC[C@H](C(=O)O)CC3)C2)cc1 (single isomer, unassigned)
< 20 µM
